- protocol: Ordinary stability of QC samples (room temperature for 8 h)
- Format: physicochemical, rat
- reported.conditions: plasma QC, spiked 600 ng/mL, room temperature 8 h
measurement.kind: Ordinary stability Mean (%)
Number in %, nothing else.

Tell us which Ordinary stability Mean value is on record for C=C1CC[C@@H]2[C@](C)(CO)[C@H](O)CC[C@@]2(C)[C@@H]1C/C=C1/C(=O)OC[C@H]1O [Analyte 12, andrographolide]
85.93

Provide Ordinary stability Mean value for the following molecule: C=C1CC[C@@H]2[C@](C)(CO)[C@H](O)CC[C@@]2(C)[C@@H]1/C=C/C1=CCOC1=O [Analyte 15, 14-deoxy-11,12-didehydro-andrographolide]
82.90

Annotate the molecule C=C1CC[C@@H]2[C@](C)(CO)CCC[C@@]2(C)[C@@H]1CCC1=CCOC1=O [Analyte 17, andrograpanin] with its measured Ordinary stability Mean.
89.06

Query Ordinary stability Mean for C=C1CC[C@@H]2[C@](C)(CO[C@@H]3O[C@H](CO)[C@@H](O)[C@H](O)[C@H]3O)CCC[C@@]2(C)[C@@H]1CCC1=CCOC1=O [Analyte 5, neoandrographolide]
94.88

Retrieve Ordinary stability Mean measured for COc1cc(/C=C/C(=O)O)ccc1O [Analyte 6, trans-ferulic acid] and print it.
91.44

// provenance: paper PMC7382147
